Reference source: PubChem BioAssay

Readings of z-score for the listed molecules
# TEST_DETAILS: E. coli acrAB mutant growth effects, primary screen, E. coli filamentation inducers, strain DRC39, OD650, 48 h (AID 1179);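 note: screen aims at cell division blockers that make cells filament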
# TEST_CONDITIONS: E. coli DRC39 delta-acrAB growth, higher = more signal, called active from +8 up or from −8 down
A bare number is all that is needed in reply.

As a guide, the following entries are already answered.
# TEST_SMILES, z-score
rows = [
    ("C[n+]1ccc(CCCO)cc1", -1.1),
    ("O=C1O[C@@H](c2ccccc2)[C@@H](c2ccccc2)N2[C@@H](c3ccccc3OCCO)[C@]3(C(=O)Nc4ccc(C#CC5=CCCCC5)cc43)[C@@H](C(=O)NC[C@H](O)c3ccccc3)[C@H]12", -0.208),
]

Proceed to the following item.
Q: Fill in the blank: the reported z-score of COCCOC(=O)N1C(=O)[C@@]2(c3cc(C#Cc4ccc(OC)cc4)ccc31)[C@H](C(=O)N1CCCCCCC1)[C@H]1C(=O)O[C@H](c3ccccc3)[C@H](c3ccccc3)N1[C@@H]2c1ccc(O)cc1 is ____.
Result: -1.22
